System: Escherichia coli
Test: Antibacterial activity against Escherichia coli ATCC 11303 after 24 hrs by NCCLS M7-A6 broth dilution method
Type: functional
Conditions: ATCC 11303, 24 h
Sorting guide: entries reporting MIC beneath 50 µg/mL go in the class 1 pile, the rest go in the class 0 pile.

Examples with answers:
Cc1oc(-c2ccccc2)nc1CCCc1nc2cc(C[C@@H](Oc3ccc(C(F)(F)F)cc3)C(=O)O)ccc2o1 class 1
Cc1oc(-c2ccccc2)nc1CCCc1nc2cc(C[C@H](OC(C)C)C(=O)O)ccc2o1 class 0
Cc1oc(-c2ccccc2)nc1CCCc1nc2cc(C[C@H](Oc3ccc(Cl)cc3Cl)C(=O)O)ccc2o1 class 1

INPUT: # TODO verify MIC < 50 µg/mL strictly for this compound: CO/N=C(\C(=O)N[C@@H]1C(=O)N2C(C(=O)O)=C(COC(C)=O)CS[C@H]12)c1csc(N)n1
OUTPUT: class 0

INPUT: Entry CC(=O)c1ccc(O[C@@H](Cc2ccc3oc(CCCc4nc(-c5ccccc5)oc4C)nc3c2)C(=O)O)cc1 please
OUTPUT: class 0

INPUT: Entry Cc1oc(-c2ccccc2)nc1CCCc1nc2cc(C[C@H](Oc3ccc(I)cc3)C(=O)O)ccc2o1 please
OUTPUT: class 1
